Kindly supply the reported MIC values for the records listed here.
# Tested on: STAPHYLOCOCCUS EPIDERMIDIS 3519
# Format: cell-based
# condition_notes: S. epidermidis 3519; BHI agar; unit assumed
Enter your answer as a number in µg/mL; do not include the unit.

[in] Recorded MIC of CC[C@H]1OC(=O)[C@H](C)C(=O)[C@H](C)[C@@H](O[C@@H]2O[C@H](C)C[C@H](N(C)C)[C@H]2O)[C@](C)(OC)C[C@@H](C)C2=NC3COCC3N3C(=O)O[C@@]1(C)[C@H]3[C@H]2C (some centres unmarked) , please.
[out] 1.56

[in] Recorded MIC of `CC[C@H]1OC(=O)[C@H](C)C(=O)[C@H](C)[C@@H](O[C@@H]2O[C@H](C)C[C@H](N(C)C)[C@H]2O)[C@](C)(OC)C[C@@H](C)C2=N[C@@H]3CN(Cc4ccc(Cl)cc4)C[C@@H]3N3C(=O)O[C@@]1(C)[C@H]3[C@H]2C` , please.
[out] 0.78

The origin of these recorded values is patent US6274715A.
